# TARGET_SYSTEM: Glucocorticoid receptor (Homo sapiens)
# METHOD_DESCRIPTION: GR-GFP Redistribution (AID 450); note: potency is the fitted concentration of half-maximal effect
# EXPERIMENTAL_CONTEXT: U2OS GR-GFP nuclear translocation, laser cytometry, 2 h; series mostly up to 20.6 µM
Activity calls are given as the source filed them.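 Rule for the calls: active = compounds whose dose series gives a full or clear partial fitted curve of increased nuclear translocation; inconclusive = weak partial curve or effect only at the top dose; inactive = no dose-dependent translocation response.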
QUANTITY_NAME: Potency

1) C=C(C)CSC1=C(C#N)C(c2ccsc2)CC(=O)N1 (centres undefined); > 20.6 µM (inactive)
2) CCC(c1c(C)n(C)n(-c2ccccc2)c1=O)c1c(C)n(C)n(-c2ccccc2)c1=O; > 20.6 µM (inactive)
3) COc1ccc(C2C(C#N)=C(N)SC(N)=C2C#N)cc1OC; > 20.6 µM (inactive)
4) Cn1c(SCC(=O)NCc2ccccc2)nc2ccccc21; > 20.6 µM (inactive)
5) CC(C)(C#N)C(C)(C)c1nn[nH]n1; > 20.6 µM (inactive)
6) CCc1ccc(-c2cn3nc(C)c(C)nc3n2)cc1; > 20.6 µM (inactive)
7) O=c1cc(-c2ccccc2O)oc2c(O)c(O)ccc12; > 46 µM (inactive)
8) COc1cccc(/C=C2/CN(C)CC3=C2OC(N)=C(C#N)C3c2cccc(OC)c2)c1 (centres undefined); > 20.6 µM (inactive)
9) O=C1c2ccccc2C(=O)N1c1ncccn1; > 20.6 µM (inactive)
10) CN(C)CC(O)COc1ccc(-c2ccc(C#N)cc2)cc1 (centres undefined); > 20.6 µM (inactive)
11) COc1cc(=O)[nH]c(=O)n1CC(=O)c1ccccc1; > 20.6 µM (inactive)
12) CC(=O)N(Cc1ccccc1)c1ccc(C(=O)O)cc1; > 20.6 µM (inactive)
13) COc1ccc(-c2nc3n(n2)C(=O)CC(c2ccco2)S3)cc1 (centres undefined); > 20.6 µM (inactive)
14) CCOC(=O)CCc1c(C)c(C#N)c2nc3ccccc3n2c1-n1ccnc1; > 20.6 µM (inactive)
15) CN(C)c1ccc(NC(=O)c2sc(SCC(=O)Nc3nccs3)nc2N)cc1; > 20.6 µM (inactive)
16) Cc1c(C)c2cc(Cl)c(O)c(CN3CCCC(C)C3)c2oc1=O (centres undefined); > 20.6 µM (inactive)
17) CCCc1nc(N2CCOCC2)c(C#N)c2c1CCCC2; > 20.6 µM (inactive)
18) COc1cc(O)c2c(=O)cc(-c3ccccc3)oc2c1; > 46 µM (inactive)
19) CCCCCOc1ccccc1C(=O)NCC(=O)O; > 20.6 µM (inactive)
20) CN=C1c2c(-c3ccccc3)c3cc(OC)ccc3n2CCN1C; > 20.6 µM (inactive)
21) CC1(C)Cc2c(C#N)c(SCc3nc4ccccc4[nH]3)nc(N3CCOCC3)c2CO1; > 20.6 µM (inactive)
22) COC(=O)c1ccc(C2/C(=C(\O)c3cccc(OC)c3)C(=O)C(=O)N2CCCN(C)C)cc1 (centres undefined); > 20.6 µM (inactive)
23) CC(=O)N[C@H](Cc1c[nH]c2ccccc12)C(=O)O; > 46 µM (inactive)
24) CCC1=Nc2ccccc2NC2=C1C(=O)CCC2; > 20.6 µM (inactive)
